Target: GRAB CRF1.0 sensor (human (GPCR scaffold cDNA))
Experiment: other fluorescence titration
pEC50: −log10 of the molar value.
Catalogue of binders with associated pEC50
Reported Property: pEC50

Binder: SEEPPISLDLTFHLLREVLEMARAEQLAQQAHSNRKLMEIIGK [corticotropin-releasing factor (CRF)]
Measured Result: 7.48
//
Binder: DNPSLSIDLTFHLLRTLLELARTQSQRERAEQNRIIFDSVGK [urocortin 1 (UCN1)]
Measured Result: 7.16
